studySystem: Dopamine beta hydroxylase (Homo sapiens, UniProt P09172)
Construct: 125 μl of plasma; tissue Instituto Português do Sangue Transplantação; host or cells: human plasma from healthy donors
Sequence (P09172 40-617 limits assumed): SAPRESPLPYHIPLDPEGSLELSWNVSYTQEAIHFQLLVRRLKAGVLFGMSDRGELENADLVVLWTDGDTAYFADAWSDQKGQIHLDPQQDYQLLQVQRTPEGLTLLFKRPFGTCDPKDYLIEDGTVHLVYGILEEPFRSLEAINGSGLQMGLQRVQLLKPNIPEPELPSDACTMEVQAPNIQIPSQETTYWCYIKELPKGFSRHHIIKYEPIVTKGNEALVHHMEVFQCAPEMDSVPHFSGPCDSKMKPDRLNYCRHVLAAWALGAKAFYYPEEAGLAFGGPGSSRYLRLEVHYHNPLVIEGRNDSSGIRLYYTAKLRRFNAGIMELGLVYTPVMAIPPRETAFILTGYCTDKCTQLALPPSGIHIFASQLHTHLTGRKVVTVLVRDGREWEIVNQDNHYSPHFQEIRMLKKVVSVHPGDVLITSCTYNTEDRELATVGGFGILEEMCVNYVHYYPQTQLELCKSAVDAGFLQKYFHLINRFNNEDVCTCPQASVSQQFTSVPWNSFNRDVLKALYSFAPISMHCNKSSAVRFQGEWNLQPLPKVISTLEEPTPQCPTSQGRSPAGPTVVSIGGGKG
experimentalDetails: Dopamine beta hydroxylase activity in human plasma
Assay type: biochemical
cond: inhibitor 0.01 μM
Protocol: Furthermore, the ability of a compound to inhibit DβH activity may be assessed in human plasma using the following assay. […]. Dopamine beta hydroxylase activity in human plasma was measured by the method of Nagatsu and Udenfriend (Nagatsu, T. and Udenfriend, S. “Photometric assay of dopamine-μ-hydroxylase activity in human blood.” Clin. Chem. 18(9) 980-983, 1972) with minor modifications. […] Absorbance was linear with octopamine concentration from 0.5 to 20 μg/ml. […]
readoutName: Plasma (0.01 μM), activity in % of control

{"molecule": "CN(C(=O)Cc1c2n(c(=S)n1C)C[C@H](c1c(F)ccc(Br)c1F)C2)[C@@H]1CCOC1", "studySystem": "Dopamine beta hydroxylase (Homo sapiens, UniProt P09172)", "valueMeasured": "39.8 % of control"}
{"molecule": "Cn1c(CC(=O)O)c2n(c1=S)C[C@H](c1cc(Cl)ccc1F)C2", "studySystem": "Dopamine beta hydroxylase (Homo sapiens, UniProt P09172)", "valueMeasured": "82.0 % of control"}
{"molecule": "Cl.Cn1c(CCNC2CCCC2)c2n(c1=S)C[C@@]1(c3cc(Br)ccc3F)C[C@@H]21", "studySystem": "Dopamine beta hydroxylase (Homo sapiens, UniProt P09172)", "valueMeasured": "71.7 % of control"}

Quick check: Plasma (0.01 μM), activity in % of control of Cn1c(CC(=O)NCC2CCCO2)c2n(c1=S)C[C@@H](c1c(F)c(F)cc(F)c1F)C2 (stereo in doubt) [Example 387] ?
92.9 % of control

Which Plasma (0.01 μM), activity in % of control value is on record for `[2H]C([2H])([2H])n1c(CC(=O)N[C@@H]2CCCOC2)c2n(c1=S)C[C@@]1(c3cc(Br)ccc3F)C[C@@H]21` ?
33.4 % of control

Plasma (0.01 μM), activity in % of control for `O=C(Cc1[nH]c(=S)n2c1[C@@H]1C[C@]1(c1cc(Cl)ccc1F)C2)NCc1ccccc1` ?
88.6 % of control

Recorded Plasma (0.01 μM), activity in % of control for `Cn1c(CC(=O)NC2COC2)c2n(c1=S)C[C@@H](c1c(F)ccc(F)c1F)C2` , please?
95.4 % of control

Given the entry `C[C@@H](NC(=O)Cc1[nH]c(=S)n2c1C[C@H](c1c(F)ccc(Br)c1F)C2)C1CCCCC1` , report its measured Plasma (0.01 μM), activity in % of control.
81.3 % of control

Param item = `[2H]C([2H])([2H])n1c(CC(=O)N[C@@H]2CCOC2)c2n(c1=S)C[C@@]1(c3cc(Br)ccc3F)C[C@@H]21` ; retrieve measured Plasma (0.01 μM), activity in % of control.
62.3 % of control
